- experiment: Selectivity index, ratio of CC50 for cytotoxicity against mouse T lymphocytes to IC50 for Immunosuppressive activity in BALB/c mouse splenocytes assessed as reduction in […]-induced mouse B-lymphocytes proliferation
- Type: toxicity, cell-based
observable: selectivity ratio
Hey, just send me the number, nothing else.

Example results:
CC(C)(O)CCc1ccc(O)c2c1OC1C=C3O[C@H]4OCC[C@H]4C3=C(O)C1C2=O (stereo partly drawn): 1.4
CO[C@H]1C[C@@]2(O)C3=C(O)C4C(=O)c5c(O)ccc(CCC(C)(C)O)c5OC4C=C3O[C@H]2O1 (stereo partly drawn): 2.1
CC(C)(O)C[C@H](O)c1ccc(O)c2c1OC1C=C3O[C@H]4OC=C[C@@]4(O)C3=C(O)C1C2=O (stereo partly drawn): 1.3
CO[C@H]1C[C@H]2C3=C(O)C4C(=O)c5c(O)ccc(CCC(C)(C)O)c5OC4C=C3O[C@H]2O1 (stereo partly drawn): 1.9
COC1=C2C(=CC3Oc4c(OC)cc(Cl)c(OC)c4C(=O)C13)O[C@H]1OC=C[C@@H]21 (stereo partly drawn): 0.92

### Prompt Entry CO[C@@H]1C[C@@]2(O)C3=C(O)C4C(=O)c5c(O)ccc(CCC(C)(C)O)c5OC4C=C3O[C@H]2O1 (stereo partly drawn) has what selectivity ratio?
### Response 2
